- System: CCRIS mutagenicity, Ames/micronucleus/aberration tests
- MEASUREMENT PROTOCOL: CCRIS mutagenicity studies
- STUDY CONDITIONS: Test System: AMES SALMONELLA TYPHIMURIUM; Strain/Indicator: TA98; Metabolic Activation: RAT, LIVER, S-9, PHENOBARBITAL; Method: STANDARD PLATE
The source made the active and inactive calls. No rule for the calls is given here.
Labels: True for active, False for inactive

# COMPOUND, DISCRETE LABEL
rows = [
    ("O=C/C(=C(\\Cl)C(=O)O)C(Cl)Cl", "False"),
    ("Nc1ccc2c([nH]c3ccccc32)c1[N+](=O)[O-]", "True"),
    ("O=C(O)/C(Cl)=C(/C(=O)O)C(Cl)Cl", "False"),
    ("COc1c2ccoc2c(OC)c2oc(=O)ccc12", "False"),
    ("O=S1OCC2C(CO1)C1(Cl)C(Cl)=C(Cl)C2(Cl)C1(Cl)Cl (configuration not stated)", "False"),
    ("O=C(O)CC(O)(CC(=O)O)C(=O)O", "False"),
    ("COc1ccc2c(OC)c3ccoc3nc2c1", "True"),
    ("c1cncc(-c2cccnc2)c1", "False"),
    ("c1cc(-c2ccncc2)ccn1", "False"),
    ("COc1cc2c(c3oc(=O)c4c(c13)CC[C@@H]4O)[C@@H]1C=CO[C@@H]1O2", "True"),
    ("Nc1c(N=Nc2ccc(-c3ccc(NN=C4C=CC(=O)C=C4)cc3)cc2)c(S(=O)(=O)O)cc2c1C(=O)/C(=N/Nc1ccccc1)C(S(=O)(=O)O)=C2", "False"),
    ("COc1ccc2c(OC)c3ccoc3nc2c1OC", "True"),
]
